- condition-info: human, hek293, 0.1 µM;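 further: equilibrium dialysis of compound in HEK293 cell homogenate, free drug quantified by UPLC-MS/MS, Fu is the unbound fraction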
Overview of reported Fu across a group of compounds:
# output: bare number, no unit

• COC(=O)C1=C(C)NC(C)=C(C(=O)OCCN(C)Cc2ccccc2)C1c1cccc([N+](=O)[O-])c1 (stereo not drawn) [NICARDIPINE] = 0.095

// lookup Fu for CSc1ccc2c(c1)N(CCC1CCCCN1C)c1ccccc1S2 (stereo not drawn) [THIORIDAZINE] 0.049

----------
- condition-info: human, hek293, 0.1 µM
Reported Fu values are given for each entry in this list.
// print number alone

* O=C(O)Cc1ccccc1Nc1c(Cl)cccc1Cl [DICLOFENAC] | 0.78

Name the reported Fu value associated with the compound COCc1c(C(C)C)nc(C(C)C)c(/C=C/[C@@H](O)C[C@@H](O)CC(=O)O)c1-c1ccc(F)cc1 [CERIVASTATIN] 0.55

Now try CC(C)(C)NCC(O)COc1ccc(NC(=O)NC2CCCCC2)cc1 (centres undefined) [TALINOLOL] . 0.85

Also need CN(C)C(=O)C(CCN1CCC(O)(c2ccc(Cl)cc2)CC1)(c1ccccc1)c1ccccc1 [LOPERAMIDE] , thanks. 0.35
